Source: patent US20210095032A1

- SYSTEM_NAME: T1, cynomolgus monkey PD-1-his protein (Acro biosystems, #PD-1-05223) (cynomolgus monkey, UniProt B0LAJ3 25-170)
- T1 construct: Bought protein; also called Cynomolgus PD-1; Cynomolgus PD1
- ASSAY_DETAILS: SPR (Biacore), antibody captured, cynomolgus PD-1-his flowed
Let's look at some binders and their measured Kd.

BINDER	UNIT_ABBREVIATION	Kd
chimeric D2H3 antibody (antibody, human IgG1, kappa, V domains shown, Mouse variable domains cloned in frame to human IgG1 and kappa constant regions; also called chD2H3) VH: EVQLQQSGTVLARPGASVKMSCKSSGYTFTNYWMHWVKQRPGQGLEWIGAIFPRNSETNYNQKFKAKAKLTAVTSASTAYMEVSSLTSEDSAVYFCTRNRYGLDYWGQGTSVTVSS VL: DIVLTQSPGFLAVSLGQRATISCRASESVSLHGTRLMHWYHQKPGQPPKLLISLGSNLESGVPARFSGSGSETDFTLNIHPVEEEDAATYFCQQSIEDPWTFGGGTKLEIKR	nM	1.78
mouse anti-PD-1 monoclonal antibody D2A4 (antibody, V domains shown, Mouse antibody purified from a hybridoma; also called Mouse D2A4; mouse D2A4) VH: EVKLVESGGGLVKPGGSLKLSCAASGFTFSSYTMSWVRQTPAKRLEWVATISGGGSNTYYPDSVKGRFTISRDNARNTLYLQMSSLRSEDTAMYYCARQAFYSNYWYFDVWGAGTTVTVSS VL: DIQMTQSPASQSASLGESVTITCLASQTIGTWLAWYQQTPGKSPQLLIYAATSLADGVPSRFSGSGSGTKFSFKISSLQAEDFASYYCQQVSSIPWTFGGGTKLEIR	nM	6.57
mouse anti-PD-1 monoclonal antibody D2H3 (antibody, V domains shown, Mouse antibody purified from a hybridoma; also called Mouse D2H3; mouse D2H3) VH: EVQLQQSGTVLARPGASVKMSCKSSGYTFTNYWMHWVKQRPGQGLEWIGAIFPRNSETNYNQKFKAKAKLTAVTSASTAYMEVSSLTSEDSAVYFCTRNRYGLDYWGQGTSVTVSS VL: DIVLTQSPGFLAVSLGQRATISCRASESVSLHGTRLMHWYHQKPGQPPKLLISLGSNLESGVPARFSGSGSETDFTLNIHPVEEEDAATYFCQQSIEDPWTFGGGTKLEIK	nM	1.46
huD2H3-V14 (antibody, human IgG1, kappa, V domains shown, Humanized D2H3, human IgG1/kappa) VH: EVQLVQSGAEVKKPGSSVKVSCKASGYTFTNYWMHWVRQAPGQGLEWMGAIFPRNSETNYNQKFKARVTITADESTSTAYMELSSLRSEDTAVYYCTRNRYGLDYWGQGTLVTVSS VL: DIVMTQSPDSLAVSLGERATINCRASESVSLHGTRLMHWYQQKPGQPPKLLIYLGSNLESGVPDRFSGSGSGTDFTLTISSLQAEDVAVYYCQQSIEDPWTFGQGTKLEIKR	nM	1.5
huD2A4-V6 (antibody, human IgG1, kappa, V domains shown, Humanized D2A4, human IgG1/kappa) VH: EVQLVESGGGLVQPGGSLRLSCAASGFTFSSYTMSWVRQAPGKGLEWVSTISGGGSNTYYPDSVKGRFTISRDNSKNTLYLQMNSLRAEDTAVYYCARQAFYSNYWYFDVWGKGTTVTVSS VL: DIQMTQSPSSVSASVGDRVTITCLASQTIGTWLAWYQQKPGKAPKLLIYAATSLADGVPSRFSGSGSGTDFTLTISSLQPEDFATYYCQQVSSIPWTFGGGTKVEIKR	nM	6.43
